System: B6C3F1 mice, B16 melanoma ip, median survival T/C
METHOD_DESCRIPTION: NCI In Vivo Anticancer Drug Screen. Data for tumor model B16 Melanoma (intraperitoneal) in B6C3F1 mice
APPLIED_CONDITIONS: endpoint: median survival time; dose: 2.0 mg/kg/injection; schedule: Q01DX009 (ip); vehicle: saline
Toxic doses and inconclusive results are not listed. The calls were made as follows: active = survival T/C of 150% or more; inactive = T/C below 125% in these data.
Outcomes: true (1) (active), false (0) (inactive)

| MOLECULE | CLASS |
| --- | --- |
| COc1cccc2c1C(=O)c1c(O)c3c(c(O)c1C2=O)C[C@@](O)(C(=O)COC(=O)c1cccnc1)C[C@@H]3OC1CC(N)C(O)C(C)O1 (stereo not given in full) | true (1) |
| CCC1CC2CN(CCc3c([nH]c4ccccc34)C(C(=O)OC)(c3cc4c(cc3OC)N(C)C3C(O)(C(=O)OC)C(OC(C)=O)C5(CC)C=CCN6CCC43C65)C2)C1 (stereo not given) | true (1) |
| Cc1c(N)nc([C@H](CC(N)=O)NC[C@H](N)C(N)=O)nc1C(=O)N[C@H](C(=O)N[C@H](C)[C@@H](O)CC(=O)N[C@H](C(=O)NC(O[C@@H]1O[C@@H](C)[C@@H](N)[C@@H](O)[C@H]1O)C(O)c1nc(-c2nc(C(=O)NCCCCN)cs2)cs1)[C@@H](C)O)[C@@H](O[C@@H]1O[C@@H](CO)[C@@H](O)[C@H](O)[C@@H]1O[C@H]1O[C@H](CO)[C@@H](O)[C@H](OC(N)=O)[C@@H]1O)c1c[nH]cn1 (stereo not given in full) | false (0) |
| CO[C@H](C(=O)[C@@H](O)[C@@H](C)O)[C@@H]1Cc2cc3cc(OC4CC(OC5CC(O)C(O)C(C)O5)C(O)C(C)O4)c(C)c(O)c3c(O)c2C(=O)[C@H]1OC1CC(OC2CC(OC3CC(C)(O)C(O)C(C)O3)C(O)C(C)O2)C(O)C(C)O1 (stereo not given in full) | false (0) |
| COc1cccc2c1C(=O)c1c(O)c3c(c(O)c1C2=O)C[C@@](O)(/C(CO)=N/NC(=O)c1ccc(Cl)c(Cl)c1)C[C@@H]3OC1CC(N)C(O)C(C)O1 (stereo not given in full) | true (1) |
